# Tgt: T1, human TMEM106B (human, UniProt Q9NUM4 2-274)
# T1 construct: Full-length, on transiently transfected HEK293 cells, or natively expressed on HeLa, U251 and A549 cells; also called huTMEM106B; huTMEM
# Assay Protocol: FACS U251;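 note: flow cytometry of cells exposed to antibody (purified at 10 µg/mL, or hybridoma supernatant) for 1 h on ice, with propidium iodide-positive dead cells gated out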
Endpoint Label: MFI

anti-TMEM106B antibody TM-1 (antibody, V domains shown) VH: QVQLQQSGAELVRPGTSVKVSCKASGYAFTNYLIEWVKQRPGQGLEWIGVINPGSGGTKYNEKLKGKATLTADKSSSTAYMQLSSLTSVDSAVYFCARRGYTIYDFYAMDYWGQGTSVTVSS VL: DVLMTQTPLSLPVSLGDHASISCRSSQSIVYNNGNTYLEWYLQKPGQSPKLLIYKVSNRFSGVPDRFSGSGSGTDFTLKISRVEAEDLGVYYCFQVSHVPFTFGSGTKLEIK ... 244
anti-TMEM106B antibody TM-13 (antibody, V domains shown) VH: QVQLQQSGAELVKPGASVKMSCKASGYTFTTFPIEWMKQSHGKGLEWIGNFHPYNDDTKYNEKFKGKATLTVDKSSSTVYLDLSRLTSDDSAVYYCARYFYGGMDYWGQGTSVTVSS VL: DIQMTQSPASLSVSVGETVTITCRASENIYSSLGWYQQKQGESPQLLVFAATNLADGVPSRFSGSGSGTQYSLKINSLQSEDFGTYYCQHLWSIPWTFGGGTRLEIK ... 787
anti-TMEM106B antibody TM-16 (antibody, V domains shown) VH: EVQLQQSGAELVRPGASVKLSCTTSGFNIKDYYMHWVKQRTEQGLEWIGRIDPEDGETKYAPEFQGKATITSDTSSNTAFLQLSSLTSEDTAVYYCASSQPFTYWGQGTLVTVSA VL: QIVLTQSPAIMSASPGEKLTMTCSASSSLNYMYWYQQKPGSSPRLLIYDTSNLASGVPVRFSGSGSGTSYSLTISRMEAEDGATYYCQQWTSFPPTFGAGTKLELK ... 292
anti-TMEM106B antibody TM-9 (antibody, V domains shown) VH: EVQLVESGGDLVKPGGSLKLSCVASGFTFSGYGMSWVRQTPDKRLEWVATISSGSFYIYYPDSVKGRLTVSRDNAKNTLYLQMSSLKSEDTAIYYCARQNFYYGCEDYWGQGTTLTVSS VL: DIVMTQAAFSNPVTLGTSASISCRSSKSLLHSNGITYLYWYLQKPGQSPQLLIYQMSNLASGVPNRFSSSGSGTDFTLRISRVEAEDVGVYYCAQNLELPWTFGGGTKLEIK ... 1540
anti-TMEM106B antibody TM-11 (antibody, V domains shown) VH: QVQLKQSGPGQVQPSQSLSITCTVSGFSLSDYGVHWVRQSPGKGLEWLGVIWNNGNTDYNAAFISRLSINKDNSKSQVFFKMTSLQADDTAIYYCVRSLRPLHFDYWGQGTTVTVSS VL: DIVMTQSPSSLTMSVGQKVTMHCKSSQSLLNSNNLQNYLAWYQQKPGQSPTLLVYFASIRESGVPDRFIGSGSGTDFTLTISSVQAEDLADYFCQQHYNTPFTFGSGTKLEIR ... 866
anti-TMEM106B antibody TM-37 (antibody, V domains shown) VH: QVQLQQSGAELAKPGASVKLSCKASGYTFTSYWMHWVKQRPGQGLEWIGYVNPSSGYTKNNQKFKDKVTLTADKSSSTAYMQLSSLTYEDSAVYYCAREGGSISDWYFDVWGTGTTVTVSS VL: DIVMTQAAPSVPVTPGESVSISCRSSKSLLHSNGNTYSYWFLQRPGQSPQLLIYRMSNLASGVPDRFSGSGSGTAFTLRISRVEAEDVGVYYCMQHLEYPYTFGGGTKLEIK ... 408
anti-TMEM106B antibody TM-52 (antibody, V domains shown, mouse IgG from hybridoma) VH: QVQLQQPGAELVKPGASVKLSCKASGYTFTNYWMHWVKQRPGQGLDWIGNIDPSDSETHYNQKFKDKATLTVDKVSSTAYMQLSSLTSEDSAVYYCARRGYYGRSPFAYWGQGTLVTVSA VL: ENVLTQSPAIMSASPGEKVTMTCSASSSVSYMHWYQQKSNTSPKLWIYDTSKLASGVPGRFSGSGSGNSYSLTISSAEAEDVATYYCFQGSGYPLTFGAGTKLELK ... 341
anti-TMEM106B antibody TM-2 (antibody, V domains shown) VH: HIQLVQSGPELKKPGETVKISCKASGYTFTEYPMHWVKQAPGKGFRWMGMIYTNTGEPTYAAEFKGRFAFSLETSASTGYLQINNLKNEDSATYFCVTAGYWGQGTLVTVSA VL: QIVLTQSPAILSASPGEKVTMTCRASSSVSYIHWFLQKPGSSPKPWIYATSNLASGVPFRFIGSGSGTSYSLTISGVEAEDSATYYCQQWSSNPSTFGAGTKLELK ... 1410
anti-TMEM106B antibody TM-50 (antibody, V domains shown, mouse IgG from hybridoma) VH: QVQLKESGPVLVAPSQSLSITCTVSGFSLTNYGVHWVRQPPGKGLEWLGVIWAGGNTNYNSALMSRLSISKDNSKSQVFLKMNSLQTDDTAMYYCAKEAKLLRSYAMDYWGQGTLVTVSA VL: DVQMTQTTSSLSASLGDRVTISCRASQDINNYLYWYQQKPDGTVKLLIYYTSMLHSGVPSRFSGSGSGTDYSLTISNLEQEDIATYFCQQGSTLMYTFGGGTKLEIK ... 260
anti-TMEM106B antibody TM-31 (antibody, V domains shown, mouse IgG from hybridoma) VH: QVQLQQSGAELAKPGASVKVSCKASGYTFISYWMNWVKQRPGQGLEWIGYINPTSGYTRYNQKFKDKATLTADKSSSTAYMQLSSLTYEDSAVYYCARSPPTVVLIGYFDYWGQGTTLTVSS VL: DIKMTQSPSSMYASLGERVTFTCKASQDINSYLSWFQQKPGKSPKTLIYRGNGLVDGVPSRFSGSGSGQDYSLTISSLEYEDMGIYYCLQYDEFPFTFASGTKLEIK ... 352
